Field IC50: reported value for KRas (Homo sapiens (Human)); entries drawn from several documents.
Observation type: IC50 (nM)

Here's what some known entries look like.
INSERT INTO measurements (compound, experimental_system, observation_type, value_measured) VALUES
  ('Cc1cc(N)nc(-c2cc3ncnc4c3c(c2Cl)OCCN4Cc2scnc2N)c1C(F)(F)F', 'KRas (Homo sapiens (Human))', 'IC50', 2000),
  ('O=C1NC(=O)C2CN(c3nc(OCC45CCCN4CCC5)nc4c(F)c(-c5cccc6cccc(F)c56)ncc34)CC12 (stereo not shown)', 'KRas (Homo sapiens (Human))', 'IC50', 2700);

[1] C[C@@]1(O)COCCN(c2nc(OC[C@@]34CCCN3C[C@H](F)C4)nc3sc4c(-c5c6c(cc7[nH]ncc57)CCC6=O)nccc4c23)C1
[2] NC(=O)N1CC(Nc2nc(OCC34CCCN3CCC4)nc3c(F)c(-c4cccc5cccc(Cl)c45)ncc23)C1
[3] CN(C)CC1(COc2nc(N3CCCC(C)(O)C3)c3cnc(-c4cccc5cccc(F)c45)c(F)c3n2)CC1 (stereo not shown)
[4] OC1CC2(CCCN(c3nc(OCC45CCCN4CCC5)nc4c(F)c(-c5cccc6cccc(F)c56)ncc34)C2)C1 (stereo not shown)
[5] Cc1cc(N)nc(-c2cc3ncnc4c3c(c2Cl)OCCN4C(C)CO)c1C(F)(F)F (stereo not shown)
[Q] Form: Sort by [IC50] Order [ ascending ] Give me the labels in the order the question wants.
[A] 1, 4, 3, 2, 5

====

Field IC50: reported value for UniProtKB P01116; entries drawn from several documents.
Observation type: IC50 (µM)

Here's what some known entries look like.
INSERT INTO assay_data (molecule, unit_tag, value_measured) VALUES
  ('Fc1c(-c2cccc3cccc(F)c23)ncc2c(NCc3ccc4nccn4c3)nc(OCC34CCCN3CCC4)nc12', 'µM', 4.01),
  ('Cc1cc2[nH]ncc2c(-c2nccc3c2sc2nc(OC[C@@]45CCCN4C[C@H](F)C5)nc(N4C[C@H](O)C[C@H]4C)c23)c1C(F)(F)F', 'µM', 2.99);

[a] Cc1cc2[nH]ncc2c(-c2nccc3c2sc2nc(OC[C@@]45CCCN4C[C@H](F)C5)nc(N4CCOCC5(CC(=O)N5)C4)c23)c1C(F)(F)F (stereo partly shown)
[b] O=C1CC2(CCCN(c3nc(OCC45CCCN4CCC5)nc4c(F)c(-c5cccc6cccc(CCF)c56)ncc34)C2)N1 (stereo not shown)
[c] CN1CCOc2c(Cl)c(-c3c(F)ccc4cnn(C)c34)cc3nc(OC[C@@]45CCCN4C[C@H](F)C5)nc1c23
[Q] Form: Sort by [IC50] Order [ ascending ] Give me the labels in the order the question wants.
[A] a, b, c
(a: 0.167 µM, b: 0.475 µM, c: 3.9 µM)

====

pIC50: −log10 of the molar value.
Field pIC50: reported value for KRas (Homo sapiens (Human), UniProt P01116); entries drawn from several documents.
Observation type: pIC50

INSERT INTO assay_data (compound, observation_type, value_measured) VALUES
  ('C[C@@]1(O)COCCN(c2nc(OC[C@@]34CCCN3C[C@H](F)C4)nc3sc4c(-c5c(C6=CCOC6)c(Cl)cc6[nH]ncc56)nccc4c23)C1', 'pIC50', 6.03),
  ('CCc1cccc2cccc(-c3ncc4c(N5CCCC(CS(N)(=O)=O)C5)nc(OCC56CCCN5CCC6)nc4c3F)c12 (centres unmarked)', 'pIC50', 6.49),
  ('Fc1c(-c2cccc3cccc(Cl)c23)ncc2c(N3CCCC(n4cccn4)C3)nc(OCC34CCCN3CCC4)nc12 (centres unmarked)', 'pIC50', 5.40);

[I] C=CC1CCc2cc3[nH]ncc3c(-c3nccc4c3sc3nc(OC[C@@]56CCCN5C[C@H](F)C6)nc(N5CCOC[C@@](C)(O)C5)c34)c21 (single isomer, unassigned)
[II] Cc1cc(N)nc(-c2c(Cl)c3c4c(nc(OCC5COCCN5C)nc4c2F)N([C@H](C)c2cccnc2N)CCO3)c1C(F)(F)F (some centres unmarked)
[III] CNC(=O)c1cc2n(n1)CCCN(c1nc(OCC34CCCN3CCC4)nc3c(F)c(-c4cccc5cccc(F)c45)ncc13)C2
[IV] CNc1cnc(N)c([C@@H](C)N2CCOc3c(Cl)c(-c4nc(N)cc(C)c4C(F)(F)F)c(F)c4nc(OC[C@@]56CCCN5C[C@H](F)C6)nc2c34)c1 (atropisomer, axis not shown; (aS))
[V] C#Cc1cccc2cccc(-c3ncc4c(N5CCCC(CS(N)(=O)=O)C5)nc(OCC56CCCN5CCC6)nc4c3F)c12 (centres unmarked)
[Q] Form: Sort by [pIC50] Order [ ascending ] Give me the labels in the order the question wants.
[A] III, V, I, II, IV

====

Field IC50: reported value for UniProt P01116; entries drawn from several documents.

Here's what some known entries look like.
INSERT INTO measurements (molecule, observation_type, value_measured) VALUES
  ('Cc1cc(N)nc(-c2cc3ncnc4c3c(c2Cl)OCCN4Cc2cccnc2)c1C(F)(F)F', 'IC50', '46 µM'),
  ('O=C1C[C@@]2(CCN(c3nc(OCC45CCCN4CCC5)nc4c(F)c(-c5cccc6cccc(F)c56)ncc34)C2)CN1', 'IC50', '≥ 100 µM'),
  ('Cc1cc(N)nc(-c2cc3ncnc4c3c(c2Cl)OCCN4[C@H](C)c2cccnc2N)c1C(F)(F)F', 'IC50', '0.0092 µM'),
  ('C=CC(=O)N1CCC(c2cc3ncc(-c4sc(C)nc4C)cc3c(=O)[nH]2)C1 (stereo not shown)', 'IC50', '> 20 µM');

[Q] # lookup: IC50 of CCc1c(F)ccc2cc(O)cc(-c3ncc4c(N5CCCCCCC5)nc(OC[C@@]56CCCN5C[C@H](F)C6)nc4c3F)c12
[A] ≤ 0.002 µM

[Q] What would you report for Fc1c(-c2cccc3cccc(F)c23)ncc2c(Nc3cnn(-c4ccncc4)c3)nc(OCC34CCCN3CCC4)nc12 ?
[A] ≥ 100 µM

[Q] What would you report for C#Cc1c(F)ccc2cc(O)cc(-c3ncc4c(N5CCCC6(CNC(=O)C6)C5)nc(OC[C@@]56CCCN5C[C@H](F)C6)nc4c3F)c12 (stereo partly shown) ?
[A] ≤ 0.002 µM

====

Field IC50: reported value for UniProtKB P01116; entries drawn from several documents.
Observation type: IC50 (µM)

Here's what some known entries look like.
INSERT INTO assay_data (molecule, unit_tag, value_measured) VALUES
  ('Cn1ncc2ccc(Nc3nc(OCC45CCCN4CCC5)nc4c(F)c(-c5cccc6cccc(F)c56)ncc34)cc21', 'µM', 32.4),
  ('C[C@@H]1C[C@@H]1c1c(Cl)cc2[nH]ncc2c1-c1nccc2c1sc1nc(OC[C@@]34CCCN3C[C@H](F)C4)nc(N3CCOC[C@@](C)(O)C3)c12 (atropisomer, axis not shown; (aS))', 'µM', 0.0573),
  ('CC1CC(O)CCN(c2nc(OCC34CCCN3CCC4)nc3c(F)c(-c4cccc5cccc(F)c45)ncc23)C1 (centres unmarked)', 'µM', 3.45),
  ('Cc1cccc2cccc(-c3ncc4c(N5CCCC(c6nc[nH]n6)C5)nc(OCC56CCCN5CCC6)nc4c3F)c12 (centres unmarked)', 'µM', 11.7);

[1] Cc1cc(N)nc(-c2cc3ncnc4c3c(c2Cl)OCCN4C(C)c2cnc[nH]2)c1C(F)(F)F (centres unmarked)
[2] C[C@@]1(O)COCCN(c2nc(OC[C@@]34CCCN3C[C@H](F)C4)nc3sc4c(-c5c6c(cc7[nH]ncc57)CCC6)nccc4c23)C1
[3] O=C1NC(=O)C2(CCCN(c3nc(OCC45CCCN4CCC5)nc4c(F)c(-c5cccc6cccc(CO)c56)ncc34)C2)N1 (centres unmarked)
[Q] Form: Sort by [IC50] Order [ ascending ] Give me the labels in the order the question wants.
[A] 2, 3, 1
